Hey, just so you know, these numbers are from PubChem BioAssay (NCI).

Exercise: for every item that follows, state its recorded growth.
# Tested on: KM12 colon
# assay-name: NCI-60 one-dose screen, 48 h (100 = growth as untreated, 0 = no growth, -100 = all killed)
# experimental-context: 10 µM
About 83,000 compounds went through this panel and 20% of them were active in at least one assay; those are over-represented in the sample as a whole.
Numbers only, in %.

Illustrative cases are given below, each with its answer.
sample-smiles	observed-measurement
Cc1nc2ccc(CN(C)c3ccc(C(=O)N[C@@H](CCC(=O)O)C(=O)O)s3)cc2c(=O)[nH]1	73.4
Cc1ccc(S(=O)(=O)OCCN(CCOS(=O)(=O)c2ccc(C)cc2)c2c[nH]c(=O)[nH]c2=O)cc1	116
O=C1CC[C@@H]2CCCC[C@@H]2C1	112
Cc1ccc(S(=O)(=O)Oc2ccc3c4c(c(=O)oc3c2)CCCCC4)cc1	35.3

The following compounds each have a reported value; give each one's growth.
1. O=C(N/N=C/c1ccccc1O)C(O)(c1ccccc1)c1ccccc1
2. O=C(Nc1ccc(CO)cc1)c1ccccc1Nc1ccnc(C(F)(F)F)c1
3. COc1ccc2c(c1)-c1c(c3cc(OC)ccc3n(CCN(C)C)c1=O)C2=O
4. O=C(CNC(=O)OCc1ccccc1)NCC(=O)Oc1ccc([N+](=O)[O-])cc1
5. Nc1c(C(=O)Nc2ccccc2)sc2nc3c(cc12)CCCC3
6. CS(=O)(=O)Nc1ccc(Nc2c3ccccc3nc3cc([N+](=O)[O-])ccc23)cc1

[53.7, 99.4, 8.92, 102, 31.1, -35.7]
